Data origin, for the record: patent US8815872B2

Target: Pyk2(h) (Homo sapiens)
Construct: purchased Caliper Life Sciences
Sequence (Q14289 whole entry): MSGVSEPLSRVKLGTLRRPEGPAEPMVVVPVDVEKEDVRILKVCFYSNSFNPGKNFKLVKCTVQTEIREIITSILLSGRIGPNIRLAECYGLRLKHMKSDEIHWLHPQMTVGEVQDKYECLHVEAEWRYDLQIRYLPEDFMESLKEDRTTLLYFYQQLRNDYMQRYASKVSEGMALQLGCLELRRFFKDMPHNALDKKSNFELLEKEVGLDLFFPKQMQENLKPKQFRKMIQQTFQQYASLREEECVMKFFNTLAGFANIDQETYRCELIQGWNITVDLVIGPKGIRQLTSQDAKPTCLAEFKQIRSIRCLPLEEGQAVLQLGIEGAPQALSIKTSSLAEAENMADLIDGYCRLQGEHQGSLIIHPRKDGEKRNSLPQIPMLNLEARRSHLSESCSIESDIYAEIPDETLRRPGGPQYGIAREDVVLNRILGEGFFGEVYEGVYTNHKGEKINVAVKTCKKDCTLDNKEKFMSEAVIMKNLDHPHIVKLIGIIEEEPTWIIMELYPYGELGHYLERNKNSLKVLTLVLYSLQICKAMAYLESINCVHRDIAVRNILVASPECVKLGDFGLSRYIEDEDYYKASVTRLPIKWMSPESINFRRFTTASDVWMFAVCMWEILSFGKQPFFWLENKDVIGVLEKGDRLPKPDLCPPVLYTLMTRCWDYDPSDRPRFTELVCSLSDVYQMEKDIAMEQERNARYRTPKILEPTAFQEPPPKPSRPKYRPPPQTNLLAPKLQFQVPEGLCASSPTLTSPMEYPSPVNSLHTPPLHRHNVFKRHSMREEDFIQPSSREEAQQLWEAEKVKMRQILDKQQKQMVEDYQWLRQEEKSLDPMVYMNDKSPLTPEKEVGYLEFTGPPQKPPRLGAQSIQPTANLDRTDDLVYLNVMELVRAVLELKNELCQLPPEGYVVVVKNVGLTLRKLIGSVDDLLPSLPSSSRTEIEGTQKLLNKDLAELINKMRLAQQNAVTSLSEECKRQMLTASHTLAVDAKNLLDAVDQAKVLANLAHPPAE
Test: Other kinases, single-concentration inhibition (Table 3)
Assay type: biochemical
Details: 1 μM
Listing: % inhibition Pyk2(h) of selected compounds
measured metric: % inhibition Pyk2(h) (%)

INSERT INTO results (compound, quantitative_readout) VALUES
  ('CC[C@@H]1C[C@@H]2CCCOc3cccc(c3)Nc3ncc(F)c(n3)N[C@H]2[C@H]1C(N)=O (single isomer, unassigned)', 122),
  ('CC[C@@H]1C[C@@H]2/C=C\COc3cccc(c3)Nc3ncc(F)c(n3)N[C@H]2[C@H]1C(N)=O (single isomer, unassigned)', 110),
  ('NC(=O)[C@H]1[C@H]2C[C@H]3[C@H]1Nc1nc(ncc1F)Nc1cccc(c1)OCCS[C@@H]3C2', 15);

* * *

pIC50 by entry:
Target: Aurora A (Homo sapiens, UniProt O14965)
Construct: N-terminal GST fusion with full length Aurora A (1-403 amino acids); purchased Carna Biosciences 05-101
Sequence (O14965 whole entry, the tested form may be a part): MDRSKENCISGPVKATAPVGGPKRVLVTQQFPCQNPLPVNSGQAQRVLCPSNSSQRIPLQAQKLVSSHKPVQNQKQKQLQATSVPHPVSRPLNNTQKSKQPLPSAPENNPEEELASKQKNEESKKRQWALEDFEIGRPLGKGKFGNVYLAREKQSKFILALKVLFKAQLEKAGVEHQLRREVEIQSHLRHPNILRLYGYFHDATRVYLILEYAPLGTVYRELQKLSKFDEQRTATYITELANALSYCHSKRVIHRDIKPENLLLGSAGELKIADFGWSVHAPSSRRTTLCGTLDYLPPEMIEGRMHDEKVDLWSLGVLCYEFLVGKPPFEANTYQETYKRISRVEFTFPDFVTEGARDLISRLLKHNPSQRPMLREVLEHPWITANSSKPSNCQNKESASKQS
Assay: Aurora A enzyme assay (Caliper LC3000 mobility shift)
Format: biochemical
pIC50: −log10 of the molar value.
measured metric: pIC50

INSERT INTO results (compound, result) VALUES
  ('CCC1CC2/C=C\COc3cccc(c3)Nc3ncc(F)c(n3)N[C@H]2[C@H]1C(N)=O (some centres unmarked)', '7.00 to 9.00'),
  ('CN1CCN(c2ccc3cc2CC(=O)N[C@@H]2C[C@@H]4C[C@H]2[C@@H](Nc2nc(ncc2F)N3)[C@H]4C(N)=O)CC1', '7.00 to 9.00'),
  ('NC(=O)[C@H]1[C@H]2C[C@H]3[C@H]1Nc1nc(ncc1F)Nc1cccc(c1)CCC(=O)N[C@@H]3C2', '6.00 to 7.00'),
  ('NC(=O)[C@H]1[C@H]2C[C@H]3[C@H]1Nc1nc(ncc1F)Nc1cccc(c1)N(Cc1cccs1)C(=O)CS[C@@H]3C2', '6.00 to 7.00'),
  ('NC(=O)[C@H]1[C@H]2C[C@H]3[C@H]1Nc1nc(ncc1F)Nc1cccc(c1)CS(=O)(=O)N[C@@H]3C2', '6.00 to 7.00'),
  ('NC(=O)[C@H]1[C@H]2C[C@H]3[C@H]1Nc1nc(ncc1F)Nc1cccc(c1)C(O)CN[C@@H]3C2 (some centres unmarked)', '6.00 to 7.00'),
  ('Fc1cnc2nc1NC1CCC(CC1)OC/C=C/COc1cccc(c1)N2', '6.00 to 7.00'),
  ('NC(=O)[C@H]1[C@H]2C[C@H]3[C@H]1Nc1nc(ncc1F)Nc1cccc(c1)CC(=O)N[C@@H]3C2', '7.00 to 9.00');

* * *

Biological target: FGFR4(h) (Homo sapiens)
Construct: purchased Caliper Life Sciences
Sequence (P22455 22-802): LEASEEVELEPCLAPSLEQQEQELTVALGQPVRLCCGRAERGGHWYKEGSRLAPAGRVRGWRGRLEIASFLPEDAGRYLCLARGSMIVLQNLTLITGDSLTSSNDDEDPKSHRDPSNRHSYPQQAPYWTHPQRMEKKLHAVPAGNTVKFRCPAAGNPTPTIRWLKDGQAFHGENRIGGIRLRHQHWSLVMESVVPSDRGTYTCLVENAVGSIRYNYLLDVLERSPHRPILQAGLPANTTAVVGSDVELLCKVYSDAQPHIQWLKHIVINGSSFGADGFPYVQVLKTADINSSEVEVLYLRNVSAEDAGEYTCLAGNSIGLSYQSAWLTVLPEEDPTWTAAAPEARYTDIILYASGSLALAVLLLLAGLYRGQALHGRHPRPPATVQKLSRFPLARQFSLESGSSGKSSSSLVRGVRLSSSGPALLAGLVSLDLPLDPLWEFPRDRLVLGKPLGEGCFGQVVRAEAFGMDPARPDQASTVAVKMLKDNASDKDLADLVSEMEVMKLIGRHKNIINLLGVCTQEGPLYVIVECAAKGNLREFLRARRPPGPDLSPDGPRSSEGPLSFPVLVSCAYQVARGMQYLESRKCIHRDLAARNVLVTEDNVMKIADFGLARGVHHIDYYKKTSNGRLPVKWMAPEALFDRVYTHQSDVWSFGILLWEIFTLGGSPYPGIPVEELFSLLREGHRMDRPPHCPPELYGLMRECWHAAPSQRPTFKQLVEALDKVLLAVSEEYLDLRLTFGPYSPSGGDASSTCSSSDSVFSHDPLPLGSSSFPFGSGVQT
Assay: Other kinases, single-concentration inhibition (Table 3)
Format: biochemical
Settings: 1 μM
measured metric: % inhibition FGFR4(h) (%)

INSERT INTO measurements (compound, result_unit, quantitative_readout) VALUES
  ('C=C[C@@H]1C[C@@H]2/C=C/COc3cccc(c3)Nc3ncc(F)c(n3)N[C@H]2[C@H]1C(N)=O (single isomer, unassigned) [Example 3]', '%', 122),
  ('NC(=O)[C@H]1[C@H]2C[C@H]3[C@H]1Nc1nc(ncc1F)Nc1cccc(c1)CSS[C@@H]3C2 [Example 10]', '%', 128),
  ('CC[C@@H]1C[C@@H]2CCCOc3cccc(c3)Nc3ncc(F)c(n3)N[C@H]2[C@H]1C(N)=O (single isomer, unassigned) [Example 5]', '%', 94);
